Numbers sourced from patent US20170313669A1.

- MEASUREMENT_TARGET: ABHD16A (Homo sapiens, UniProt O95870)
- Sequence (O95870 1-558): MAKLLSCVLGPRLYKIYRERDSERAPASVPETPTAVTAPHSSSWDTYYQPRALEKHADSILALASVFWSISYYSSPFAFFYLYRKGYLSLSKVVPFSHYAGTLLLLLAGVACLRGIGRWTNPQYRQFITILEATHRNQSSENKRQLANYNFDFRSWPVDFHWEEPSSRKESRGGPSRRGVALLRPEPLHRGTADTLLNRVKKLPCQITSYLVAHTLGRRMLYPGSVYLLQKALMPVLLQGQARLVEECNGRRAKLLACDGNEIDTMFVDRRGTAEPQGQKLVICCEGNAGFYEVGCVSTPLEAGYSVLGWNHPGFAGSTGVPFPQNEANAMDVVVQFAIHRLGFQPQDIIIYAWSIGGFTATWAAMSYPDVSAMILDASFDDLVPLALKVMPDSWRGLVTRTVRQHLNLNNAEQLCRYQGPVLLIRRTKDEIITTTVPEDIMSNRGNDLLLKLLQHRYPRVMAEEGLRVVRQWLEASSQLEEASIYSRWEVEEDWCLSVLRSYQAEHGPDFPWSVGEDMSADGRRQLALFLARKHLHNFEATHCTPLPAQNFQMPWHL

# COMPOUND, MEASUREMENT_TARGET, UNIT_OF_MEASUREMENT, IC50
rows = [
    ("CCCCCCCCCCCCCC1OC(=O)/C1=C\\CCCCC(N)=O (stereo not shown) [KC01]", "ABHD16A (Homo sapiens, UniProt O95870)", "nM", 90),
]
